- Target of assay: T1, huNav1.7α+β1-β2-β3 (human, UniProt Q15858 1-1988; Q07699 19-218; O60939 30-215; Q9NY72 23-215)
- T1 construct: 5N11S variant; also called huNav1.7-beta1-beta2-beta3; huNav1.7α+Navβ1-Navβ2-Navβ3
- Assay comment: binding FACS, CHO FlpIn cells
Collected EC50 values appear next to each entry.
Readout name: EC50 (µM)

• F0103275B05 (parental)-FLAG-HIS6 (VHH, also called F01033275B05) VHH: EVQLVESGGGLVQPGGSLRLSCAASGSIFNINSMAWYRRAPGKQRELVASSTNGGSTNYADSVKGRFTISRDNAKRVYLQMNSLTPEDTAVYYCNALLQPSIYDISRTYWGQGTLVTVSS = 0.027
• F0103262C02 (parental)-FLAG-HIS6 (VHH, also called F0103262CO2; F103262CO2) VHH: EVQLVESGGGLVQAGGSLTLSCAASGLPFGLYILGWIRRAPGKERDFVAAISRSGRDTVYANSVKGRFTISRDNAKNMVYLRMDNLRPEDTAAYYCAVDSVPRGTPTITESEYAIWGQGTLVTVSS = 0.32
• F0103265B04 (parental)-FLAG-HIS6 (VHH) VHH: EVQLVESGGGLVQPGGSLRLSCAAPSFIFSNNYMEWYRQAPGKQRDWVARITGRGNTNYLDSVKGRFTISRDDAKNTVYLEIDSLKPEDTAVYYCSALWYGGRAWGKGTLVTVSS = 0.0054
